Entry source: patent US20240208970A1

SYSTEM_UNDER_TEST: SARS-CoV-2 M^pro protease (Severe acute respiratory syndrome coronavirus 2 (2019-nCoV) (SARS-CoV-2))
METHOD_DESCRIPTION: biochemical
Type: biochemical
CONDITION_SET: Tables 5B-5E; M^pro 75 nM, substrate 10 μM
Measured log10 of IC50 values are reported for all entries that follow.
The common logarithm of IC50 in nM is what is listed.

Field: example entries. Status: answers known.
{"MOLECULE": "CC1(c2ccccc2)CC2(C1)NC(=O)N(c1cncc3ccccc13)C2=O (single isomer, unassigned) [Compound 38]", "log10 of IC50": 1.85}
{"MOLECULE": "O=C1CCCN1CN1C(=O)N(c2cncc3ccccc23)C(=O)C12CC(C1CCC1)C2 (stereo not shown)", "log10 of IC50": 3.49}
{"MOLECULE": "O=C1NC2(CC(c3cccc(F)c3Cl)C2)C(=O)N1c1cncc2ccccc12 (single isomer, unassigned) [Compound 30]", "log10 of IC50": 2.57}

Prompt: Query: log10 of IC50; subject: O=C1NC2(CC(c3ccccc3Cl)C2)C(=O)N1c1cncc2cnccc12 (stereo not shown)
Completion: 2.15

Prompt: Input O=C1N(c2cncc3ccccc23)C(=O)C2(CC(C3CCC3)C2)N1Cc1ccn[nH]1 (stereo not shown)
Completion: 3.58

Prompt: Similarly, O=C1NC2(CC(c3ccsc3Cl)C2)C(=O)N1c1cncc2ccccc12 (single isomer, unassigned) [Compound 41] ?
Completion: 1.91

Prompt: Cool, now O=C1NC2(CC(c3cc(F)ccc3Cl)C2)C(=O)N1c1cncc2ccccc12 (single isomer, unassigned) [Compound 35]
Completion: 1.91

====

SYSTEM_UNDER_TEST: M^pro (Severe acute respiratory syndrome coronavirus 2 (2019-nCoV) (SARS-CoV-2))
Here, each record is paired with measured pKd data.
The scale used: pKd is minus the common logarithm of the concentration in molar units.

{"COMPOUND": "O=C1NC2(CC(n3cccn3)C2)C(=O)N1c1cncc2ccccc12 (stereo not drawn)", "pKd": 6.03}
{"COMPOUND": "CN(C)c1cncc(N2C(=O)NC3(CC(c4ccccc4Cl)C3)C2=O)c1 (stereo not drawn)", "pKd": 6.10}
{"COMPOUND": "O=C1NC2(CC(c3ccccc3Cl)C2)C(=O)N1c1cncc2c(F)c(F)c(F)cc12 (single isomer, unassigned) [Compound 59]", "pKd": 6.60}

Prompt: Fill in the blank: the reported pKd of O=C1NC2(CC(c3ccccc3Cl)C2)C(=O)N1c1cncnc1 (stereo not drawn) is ____.
Completion: 6.16

Prompt: Now try O=C1NC2(CC(c3ccccc3Cl)C2)C(=O)N1c1cncc2cccc(F)c12 (stereo not drawn) .
Completion: 7.38

Prompt: Would you kindly repeat that for CC(C)c1ccncc1N1C(=O)NC2(CC(c3ccccc3Cl)C2)C1=O (stereo not drawn) ?
Completion: 7.05

Prompt: Okay, and O=C1NC2(CC(c3ccccc3Cl)C2)C(=O)N1c1cncc2cnccc12 (stereo not drawn) ?
Completion: 7.54

Prompt: O=C1NC2(CC(c3ccccc3Cl)C2)C(=O)N1c1cncc2cccnc12 (stereo not drawn) ?
Completion: 7.55

Prompt: Another compound to look at: O=C1NC2(CC(c3ccccc3Cl)C2)C(=O)N1c1cccnc1F (stereo not drawn)
Completion: 7.44

====

SYSTEM_UNDER_TEST: SARS-CoV-2 M^pro protease (Severe acute respiratory syndrome coronavirus 2 (2019-nCoV) (SARS-CoV-2))
METHOD_DESCRIPTION: biochemical
Format: biochemical
CONDITION_SET: Tables 5B-5E; M^pro 75 nM, substrate 10 μM
Under this convention, Satisfied denotes IC50 strictly below 400 nM and Not satisfied denotes IC50 at or above 400 nM.

Solved entries (count: 5):
{"COMPOUND": "O=C1NC2(CC(c3ccccc3Cl)C2)C(=O)N1c1cncc2c(F)c(F)c(F)cc12 (single isomer, unassigned) [Compound 59]", "CLASSIFICATION": "Not satisfied"}
{"COMPOUND": "COc1ccc2cncc(N3C(=O)NC4(CC(C5CCC5)C4)C3=O)c2c1 (centres unmarked)", "CLASSIFICATION": "Satisfied"}
{"COMPOUND": "CN1C(=O)N(c2cncc3ccccc23)C(=O)C12CC(c1ccccc1Br)C2 (centres unmarked)", "CLASSIFICATION": "Satisfied"}
{"COMPOUND": "O=C1NC2(CC(c3ccc(F)cc3Cl)C2)C(=O)N1c1cncc2ccccc12 (centres unmarked) [Compound 32]", "CLASSIFICATION": "Satisfied"}
{"COMPOUND": "Cc1ccc2cncc(N3C(=O)NC4(CC(C5CCC5)C4)C3=O)c2c1 (centres unmarked)", "CLASSIFICATION": "Satisfied"}

Prompt: hey, is IC50 for NC(=O)CN1C(=O)N(c2cncc3ccccc23)C(=O)C12CC(C1CCC1)C2 (centres unmarked) lower than 400 nM or not?
Completion: Not satisfied

Prompt: Field entry: O=C1NC2(CC(c3sccc3Br)C2)C(=O)N1c1cncc2ccccc12 (single isomer, unassigned) [Compound 45]
Completion: Satisfied
